- system: wild-type HCV genotype 1b NS5B protein (recombinant HCV polymerase) (Hepatitis C virus genotype 1b, UniProt Q9WMX2)
- Construct: HCV genotype 1b NS5B protein were used to generate recombinant HCV polymerases (with a deletion of the 21 carboxy terminal amino acids)
- assay summary: HCV Polymerase Enzyme Assay, wild-type
measurement kind: IC50

Task item: Consider the compound shown here: CO[C@]1(COP(=O)(O)OP(=O)(O)OP(=O)(O)O)O[C@@H](n2cnc3c(=O)[nH]c(N)nc32)[C@@H](N=[N+]=[N-])[C@@H]1O What is its recorded IC50?
Reply: 1000 to 10000 nM

Task item: Consider the compound shown here: CO[C@]1(COP(=O)(O)OP(=O)(O)OP(=O)(O)O)O[C@@H](n2ccc(=O)[nH]c2=O)[C@H](F)[C@@H]1O What is its recorded IC50?
Reply: 1000 to 10000 nM

Task item: Consider the compound shown here: CO[C@]1(COP(=O)(O)OP(=O)(O)OP(=O)(O)O)O[C@@H](n2ccc(N)nc2=O)[C@H](O)[C@@H]1O What is its recorded IC50?
Reply: < 250 nM

Task item: Consider the compound shown here: CO[C@]1(COP(=O)(O)OP(=O)(O)O)O[C@@H](n2ccc(=O)[nH]c2=O)[C@H](O)[C@@H]1O [Compound 17a] What is its recorded IC50?
Reply: > 10000 nM

Task item: Consider the compound shown here: CO[C@]1(COP(=O)(O)OP(=O)(O)OP(=O)(O)O)O[C@@H](n2ccc(=O)[nH]c2=O)[C@H](N=[N+]=[N-])[C@@H]1O What is its recorded IC50?
Reply: > 10000 nM

Task item: Consider the compound shown here: CO[C@]1(COP(=O)(O)OP(=O)(O)OP(=O)(O)O)O[C@@H](n2cnc3c(=O)[nH]c(N)nc32)[C@@H](N)[C@@H]1O What is its recorded IC50?
Reply: 1000 to 10000 nM

Task item: Consider the compound shown here: CO[C@@]1(COP(=O)(O)OP(=O)(O)OP(=O)(O)O)C[C@@H](O)[C@H](n2ccc(=O)[nH]c2=O)O1 What is its recorded IC50?
Reply: 1000 to 10000 nM

Task item: Consider the compound shown here: CO[C@]1(COP(=O)(O)OP(=O)(O)OP(=O)(O)O)O[C@@H](n2ccc(=O)[nH]c2=O)[C@H](O)[C@@H]1F What is its recorded IC50?
Reply: 250 to 1000 nM

Values were extracted from patent US10683321B2.
